Tested on: Leishmania donovani
PROTOCOL DESCRIPTION: Antileishmanial activity against Leishmania donovani axenic amastigotes after 3 days by tetrazolium dye based spectrophotometric analysis at pH 5.5
Format: functional, organism-based
EXPERIMENTAL CONDITIONS: 72 h
REPORTED METRIC: IC50

1) CC(C)Oc1cc(NC(=N)c2ccn(C)n2)ccc1-c1ccc(-c2ccc(NC(=N)c3ccn(C)n3)cc2OC(C)C)o1
5.8 µM
2) N=C(Nc1ccc(-c2ccc(-c3ccc(NC(=N)c4ccccn4)nc3)o2)cn1)c1ccccn1
> 50 µM
3) CC(C)N1CCC(Oc2cc(NC(=N)c3ccccn3)ccc2-c2ccc(-c3ccc(NC(=N)c4ccccn4)cc3OC3CCN(C(C)C)CC3)o2)CC1
28 µM
4) N=C(Nc1ccc(-c2ccc(-c3ccc(NC(=N)c4ccccn4)cc3O)o2)c(O)c1)c1ccccn1
1.5 µM
5) N=C(Nc1ccc(-c2ccc(-c3ccc(NC(=N)c4ccccn4)cc3)o2)cc1)c1ccccn1
1.6 µM
6) N=C(Nc1ccc(-c2ccc(-c3ccc(NC(=N)c4ncccn4)cc3OC3CCCC3)o2)c(OC2CCCC2)c1)c1ncccn1
1.5 µM
7) CC(C)Oc1cc(NC(=N)c2cccnn2)ccc1-c1ccc(-c2ccc(NC(=N)c3cccnn3)cc2OC(C)C)o1
1.1 µM
8) N=C(Nc1ccc(-c2ccc(-c3ccc(NC(=N)c4ccccn4)cc3F)o2)c(F)c1)c1ccccn1
4.2 µM
9) CC(=O)Nc1nc(C(=N)Nc2ccc(-c3ccc(-c4ccc(NC(=N)c5csc(NC(C)=O)n5)cc4OC(C)C)o3)c(OC(C)C)c2)cs1
> 100 µM
10) CC(C)COc1cc(NC(=N)c2ccc(Br)cn2)ccc1-c1ccc(-c2ccc(NC(=N)c3ccc(Br)cn3)cc2OCC(C)C)o1
> 50 µM
11) CC(C)Oc1cc(NC(=N)c2ccccn2)ccc1-c1ccc(-c2ccc(NC(=N)c3ccccn3)cc2OC(C)C)s1
0.68 µM
12) CC(C)CCOc1cc(NC(=N)c2ncccn2)ccc1-c1ccc(-c2ccc(NC(=N)c3ncccn3)cc2OCCC(C)C)o1
7.9 µM
13) CC(C)Oc1cc(NC(=N)c2csc(N)n2)ccc1-c1ccc(-c2ccc(NC(=N)c3csc(N)n3)cc2OC(C)C)o1
21 µM
14) N=C(Nc1ccc(-c2cc(-c3ccccc3)c(-c3ccc(NC(=N)c4ccccn4)cc3)o2)cc1)c1ccccn1
1.7 µM
15) N=C(Nc1ccc(-c2ccc(-c3ccc(NC(=N)c4ccccn4)cc3OCc3ccccc3)o2)c(OCc2ccccc2)c1)c1ccccn1
4.5 µM
16) CC(C)COc1cc(NC(=N)c2c[nH]cn2)ccc1-c1ccc(-c2ccc(NC(=N)c3c[nH]cn3)cc2OCC(C)C)o1
23 µM

----------
System: Leishmania donovani
PROTOCOL DESCRIPTION: Antileishmanial activity against Leishmania donovani axenic amastigotes after 3 days by tetrazolium dye based spectrophotometric analysis at pH 5.5
Type: functional, organism-based
EXPERIMENTAL CONDITIONS: 72 h
pIC50: −log10 of the molar value.
Each entry below lists one item and its recorded pIC50 value.
REPORTED METRIC: pIC50

1) Cc1c(-c2ccc(NC(=N)c3ccccn3)cc2)oc(-c2ccc(NC(=N)c3ccccn3)cc2)c1C
6.43
2) N=C(Nc1ccc(-c2ccc(-c3ccc(NC(=N)c4c[nH]cn4)cc3OC3CCCC3)o2)c(OC2CCCC2)c1)c1c[nH]cn1
4.85
3) CC(C)Oc1cc(NC(=N)c2ccc(Cl)cn2)ccc1-c1ccc(-c2ccc(NC(=N)c3ccc(Cl)cn3)cc2OC(C)C)o1
5.25
4) COc1ccc(C(=N)Nc2ccc(-c3ccc(-c4ccc(NC(=N)c5ccc(OC)cn5)cc4OC(C)C)o3)c(OC(C)C)c2)nc1
6.00
5) CC(C)(C)CCOc1cc(NC(=N)c2ccccn2)ccc1-c1ccc(-c2ccc(NC(=N)c3ccccn3)cc2OCCC(C)(C)C)o1
4.55
6) CC(C)Oc1cc(NC(=N)c2ncccn2)ccc1-c1ccc(-c2ccc(NC(=N)c3ncccn3)cc2OC(C)C)o1
6.26
7) CC(C)Oc1cc(NC(=N)c2ccc(N)cn2)ccc1-c1ccc(-c2ccc(NC(=N)c3ccc(N)cn3)cc2OC(C)C)o1
6.09

----------
Test system: Leishmania donovani
PROTOCOL DESCRIPTION: Antileishmanial activity against Leishmania donovani axenic amastigotes after 3 days by tetrazolium dye based spectrophotometric analysis at pH 5.5
Assay type: functional, organism-based
EXPERIMENTAL CONDITIONS: 72 h
pIC50: −log10 of the molar value.
REPORTED METRIC: pIC50

1. CC(C)Oc1cc(NC(=N)c2ccc(N3CCCC3)cn2)ccc1-c1ccc(-c2ccc(NC(=N)c3ccc(N4CCCC4)cn3)cc2OC(C)C)o1
5.72
2. CC(C)CCOc1cc(NC(=N)c2ccccn2)ccc1-c1ccc(-c2ccc(NC(=N)c3ccccn3)cc2OCCC(C)C)o1
5.29
3. CC(C)Oc1cc(NC(=N)c2ccc[nH]2)ccc1-c1ccc(-c2ccc(NC(=N)c3ccc[nH]3)cc2OC(C)C)o1
4.80
4. N=C(Nc1ccc(-c2ccc(-c3ccc(NC(=N)c4ccccn4)cc3OC3CCCC3)o2)c(OC2CCCC2)c1)c1ccccn1
5.85
5. CC(=O)N(C)c1nc(C(=N)Nc2ccc(-c3ccc(-c4ccc(NC(=N)c5csc(N(C)C(C)=O)n5)cc4OC(C)C)o3)c(OC(C)C)c2)cs1
5.44
6. N=C(Nc1ccc(-c2ccc(-c3ccc(NC(=N)c4ccccn4)cc3Br)o2)c(Br)c1)c1ccccn1
5.92

----------
System: Leishmania donovani
PROTOCOL DESCRIPTION: Antileishmanial activity against Leishmania donovani axenic amastigotes after 3 days by tetrazolium dye based spectrophotometric analysis at pH 5.5
Type: functional, organism-based
EXPERIMENTAL CONDITIONS: 72 h
REPORTED METRIC: IC50

1. Cc1cccc(C(=N)Nc2ccc(-c3ccc(-c4ccc(NC(=N)c5cccc(C)n5)cc4C)o3)c(C)c2)n1
> 50 µM
2. N=C(Nc1ccc(-c2ccc(-c3ccc(NC(=N)c4ccc(Cl)cn4)cc3OC3CCCC3)o2)c(OC2CCCC2)c1)c1ccc(Cl)cn1
> 100 µM
3. N=C(Nc1ccc(-c2ccc(-c3ccc(NC(=N)c4ccc(Br)cn4)cc3OC3CCCC3)o2)c(OC2CCCC2)c1)c1ccc(Br)cn1
> 100 µM
4. COC(=O)[C@H](N)CCOc1cc(NC(=N)c2ccccn2)ccc1-c1ccc(-c2ccc(NC(=N)c3ccccn3)cc2OCC[C@H](N)C(=O)OC)s1
> 100 µM
